Listed here are binders together with their documented Ki.
# target_under_test: Urokinase plasminogen activator (Homo sapiens (Human), UniProt P00749)
# assay_explanation: inhibition of UK activity; Ki by non-linear regression (Enzfitter) of free enzyme versus inhibitor concentration
metric_name: Ki (nM)

binder: The PAI-1 derived mutant, 89 (designed binder) VDCSEYPKPACARMAAPLCGSDNKTYGNKCNFCNAVVESNGTLTLSHFGKC
recorded_measurement: 35.9
--
binder: The Plasminogen derived mutant, 90 (designed binder) VDCSEYPKPACGRVVGPLCGSDNKTYGNKCNFCNAVVESNGTLTLSHFGKC
recorded_measurement: 51.3
--
binder: The Nexin-1 derived mutant, 91 (designed binder) VDCSEYPKPACARSSAPLCGSDNKTYGNKCNFCNAVVESNGTLTLSHFGKC
recorded_measurement: 505
--
binder: The PAI-2 derived mutant, 88 (designed binder) VDCSEYPKPACGRTGHPLCGSDNKTYGNKCNFCNAVVESNGTLTLSHFGKC
recorded_measurement: 67.6

Hey, just so you know, these numbers are from patent US5550213.
